Tested on: JAK2-dependent nuclear translocation of STAT5-GFP in U-2 OS osteosarcoma cells
Experiment: STAT5 nuclear translocation assay (Cellomics), rhEpo stimulated U-2 OS STAT5-GFP cells
Format: cell-based
Details: Homo sapiens, U2OS; STAT5 translocation pathway
Each record's IC50 is compared with low = under 9 nM, medium = from 9 nM up to 50 nM, high = 50 nM and over to give its class.

Band assignment needed for COC1CCN(Cc2ccc(Nc3ncc4ccn(-c5cc(F)c(CN6CCOCC6)c(F)c5)c4n3)cc2)C1 (racemic) please. medium

Please answer likewise for "C[C@@H]1CN(C(=O)c2cccc(Nc3ncc4ccn(-c5cc(F)c(CN6CCOCC6)c(F)c5)c4n3)c2)C[C@H](C)N1" medium

Also, "Cc1ccc(Nc2ncc3ccn(-c4cc(F)c(CN5CCS(=O)(=O)CC5)c(F)c4)c3n2)cc1CN1CCN(C)CC1" please. low

What do you have for "Fc1cc(-n2ccc3cnc(Nc4ccnc(CN5CCN(C6CC6)CC5)c4)nc32)cc(F)c1CN1CCOCC1" ? high

// next record Fc1cc(-n2ccc3cnc(Nc4ccc(C5CNCCO5)cc4)nc32)cc(F)c1CN1CCOCC1 (racemic) low

Moving on to "Cc1ccc(Nc2ncc3ccn(-c4cc(F)c(CN5CCOCC5)c(F)c4)c3n2)cc1CN1CCN(C)C(=O)C1" medium

Consider next the molecule "Fc1cc(-n2ccc3cnc(Nc4ccc(OC5CCOCC5)nc4)nc32)cc(F)c1CN1CCOCC1" in the same way. high

Now consider "Cc1ccc(Nc2ncc3ccn(-c4cc(F)c(CN5CCOCC5)c(F)c4)c3n2)cc1CN1CCOC2(COC2)C1" . high

Consider next the molecule "Cc1ccc(Nc2ncc3ccn(-c4cc(F)c(CN5CCOCC5)c(F)c4)c3n2)cc1CN1CCNCC1=O" in the same way. low

Same thing, different molecule: "CN1CCN(C(=O)c2cc(Nc3ncc4ccn(-c5cc(F)c(CN6CCOCC6)c(F)c5)c4n3)ccn2)CC1" high

What would you report for C[C@@H]1CN[C@@H](C)CN1c1ccc(Nc2ncc3ccn(-c4ccc(S(=O)(=O)NC(C)(C)C)cc4)c3n2)cn1 (racemic) ? low

What about Fc1cc(-n2ccc3cnc(Nc4ccc(N5CCNC(C(F)(F)F)C5)nc4)nc32)cc(F)c1CN1CCOCC1 (racemic) ? medium

Next up: "Cc1ccc(Nc2ncc3ccn(-c4cc(F)c(CN5CCCC5=O)c(F)c4)c3n2)cc1CN1CCNCC1" medium

###

Biological target: GST-JAK2(808-1132) (Homo sapiens, UniProt O60674)
Construct: GST-JAK2(808-1132); purchased Invitrogen (Carlsbad, USA) #4288
Sequence (O60674 808-1132): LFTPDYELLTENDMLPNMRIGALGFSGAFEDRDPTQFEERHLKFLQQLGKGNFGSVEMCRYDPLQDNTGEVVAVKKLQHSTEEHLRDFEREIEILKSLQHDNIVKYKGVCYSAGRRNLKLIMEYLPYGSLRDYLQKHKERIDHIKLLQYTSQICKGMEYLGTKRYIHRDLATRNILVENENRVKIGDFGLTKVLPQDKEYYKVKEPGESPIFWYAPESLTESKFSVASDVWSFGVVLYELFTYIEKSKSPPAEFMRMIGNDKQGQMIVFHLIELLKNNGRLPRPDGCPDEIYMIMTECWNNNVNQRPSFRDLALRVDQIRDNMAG
Experiment: JAK2 kinase assay (Caliper mobility shift, LabChip 3000)
Assay type: biochemical
REPORTED PROPERTY: pIC50
Reminder that pIC50 is minus the log10 of a molar concentration.

Any idea what pIC50 came out for "CC(C)Oc1ccc(Nc2ncc3ccn(-c4ccc(S(C)(=O)=O)cc4)c3n2)cc1" on GST-JAK2(808-1132) (Homo sapiens, UniProt O60674)? 8.03

Please give the result for "O=C(c1c(F)cc(-n2ccc3cnc(Nc4ccc(N5CCNCC5)nc4)nc32)cc1F)N1CCOCC1" too. 8.38

###

Biological target: GST-JAK2(808-1132) (Homo sapiens, UniProt O60674)
Construct: GST-JAK2(808-1132); purchased Invitrogen (Carlsbad, USA) #4288
Assay: JAK2 kinase assay (Caliper mobility shift, LabChip 3000)
Assay type: biochemical
For each of the molecules below, state its IC50.
The reply should be a number in nM, with the unit left off.

So what does the record say about IC50 for "Cn1cc(Nc2ncc3ccn(-c4ccc(C(=O)N5CCOCC5)c(F)c4)c3n2)cn1" ? 6.1

Same thing, different molecule: "O=C(c1cccc(Nc2ncc3ccn(-c4cc(F)c(CN5CCOCC5)c(F)c4)c3n2)c1)N1CCN(C2CC2)CC1" 5.1

How about this molecule: "COCCn1cc(Nc2ncc3ccn(-c4cc(F)c(C(=O)N5CCOCC5)c(F)c4)c3n2)cn1" 6.1

What about this molecule? "CC(C)Oc1ccc(Nc2ncc3ccn(-c4ccc(CN5CCOCC5)cc4)c3n2)cc1" 8.3

Just for reference, patent US8420657B2 is where these values come from.
